assay-overview: Panel rating of odor attributes of soy sauce containing biogenic amines, with and without added compound
condition-parameters: dosage of the compound 1 mg/kg, panelists n=6-8, scale 0-10, versus product alone
Excerpt: The panelists (n=6-8) rate the attributes animalistic—fishy, metallic as well as woody, sweet, flowery and terpenic, herbal on an unstructured scale from 0 (no taste)—10 (strong taste). Thereby, the order is arbitrary and not known by the panelists beforehand.
Measured Odor description (indication of relative change in percent) Woody, sweet, flowery, listed per entry.
Respond numerically; units are % and should not be typed.

# example entries with known answers
molecule	assay-result
CC(=O)/C=C/C1C(C)=CCCC1(C)C (stereo not drawn) [Alpha ionone]	−4.4
C/C=C/C=C1/C(C)=CC(=O)CC1(C)C [Tabanon]	13.7
CCCC(O)CCC1C(C)CCCC1(C)C (stereo not shown) [Timberol, 1-(2,2,6-trimethylcyclohexyl)hexan-3-ol]	27.9

Now look at this one.
Given the entry CCC(O)CCC1C(C)CCCC1(C)C (stereo not shown) [Madranol, 1-(2,2,6-trimethylcyclohexyl)pentan-3-ol] , report its measured Odor description (indication of relative change in percent) Woody, sweet, flowery.
6.6

* * *

assay-overview: Panel rating of odor attributes of soy sauce containing biogenic amines, with and without added compound
condition-parameters: dosage of the compound 0.5 mg/kg, panelists n=6-8, scale 0-10, versus product alone
Measured Odor description (indication of relative change in percent) Terpenig, herbal, listed per entry.
Respond numerically; units are % and should not be typed.

# example entries with known answers
compound	assay-result
CC1CCc2nccnc21 (stereo not shown) [5-Methyl-6,7-dihydrocyclopentapyrazine]	−5.2
CC(=O)CCC1=C(C)CCCC1(C)C [Dihydroionone]	−8.3
CC1=CC=C2C(C)(C)CCCC2(C)O1 (stereo not shown)	19.6

Now look at this one.
Given the entry CC(=O)/C=C/C12OC1(C)CCCC2(C)C (stereo not shown) , report its measured Odor description (indication of relative change in percent) Terpenig, herbal.
21.1

* * *

assay-overview: Panel rating of odor attributes of soy sauce containing biogenic amines, with and without added compound
condition-parameters: dosage of the compound 1 mg/kg, panelists n=6-8, scale 0-10, versus product alone
Measured Odor description (indication of relative change in percent) Animalistic-fishy, metallic, listed per entry.
In your response, the unit should come after the numeric value.

# example entries with known answers
molecule	assay-result
C/C=C/C=C1/C(C)=CC(=O)CC1(C)C	−18.8%
CCC(O)CCC1C(C)CCCC1(C)C (stereo not shown)	−13.9%
CCCC(O)CCC1C(C)CCCC1(C)C (stereo not shown)	−26.5%

Now look at this one.
Given the entry CC(=O)/C=C/C1C(C)=CCCC1(C)C (stereo not shown) , report its measured Odor description (indication of relative change in percent) Animalistic-fishy, metallic.
−20.5%

* * *

assay-overview: Panel rating of odor attributes of soy sauce containing biogenic amines, with and without added compound
condition-parameters: dosage of the compound 1 mg/kg, panelists n=6-8, scale 0-10, versus product alone
Excerpt: The panelists (n=6-8) rate the attributes animalistic—fishy, metallic as well as woody, sweet, flowery and terpenic, herbal on an unstructured scale from 0 (no taste)—10 (strong taste). Thereby, the order is arbitrary and not known by the panelists beforehand.
reported-metric: Odor description (indication of relative change in percent) Terpenig, herbal (%)
Respond numerically; units are % and should not be typed.

compound	assay-result
CCCC(O)CCC1C(C)CCCC1(C)C (stereo not shown)	−3.8
CCC(O)CCC1C(C)CCCC1(C)C (stereo not shown)	−6.0
CC(=O)/C=C/C1C(C)=CCCC1(C)C (stereo not shown)	−7.6

Now look at this one.
Given the entry C/C=C/C=C1/C(C)=CC(=O)CC1(C)C , report its measured Odor description (indication of relative change in percent) Terpenig, herbal.
−8.2
